Biological target: T1, EBOV GP on pseudotyped lentiviral vector (Ebola (Zaire) virus (EBOV), UniProt Q05320 33-676)
T1 sequence: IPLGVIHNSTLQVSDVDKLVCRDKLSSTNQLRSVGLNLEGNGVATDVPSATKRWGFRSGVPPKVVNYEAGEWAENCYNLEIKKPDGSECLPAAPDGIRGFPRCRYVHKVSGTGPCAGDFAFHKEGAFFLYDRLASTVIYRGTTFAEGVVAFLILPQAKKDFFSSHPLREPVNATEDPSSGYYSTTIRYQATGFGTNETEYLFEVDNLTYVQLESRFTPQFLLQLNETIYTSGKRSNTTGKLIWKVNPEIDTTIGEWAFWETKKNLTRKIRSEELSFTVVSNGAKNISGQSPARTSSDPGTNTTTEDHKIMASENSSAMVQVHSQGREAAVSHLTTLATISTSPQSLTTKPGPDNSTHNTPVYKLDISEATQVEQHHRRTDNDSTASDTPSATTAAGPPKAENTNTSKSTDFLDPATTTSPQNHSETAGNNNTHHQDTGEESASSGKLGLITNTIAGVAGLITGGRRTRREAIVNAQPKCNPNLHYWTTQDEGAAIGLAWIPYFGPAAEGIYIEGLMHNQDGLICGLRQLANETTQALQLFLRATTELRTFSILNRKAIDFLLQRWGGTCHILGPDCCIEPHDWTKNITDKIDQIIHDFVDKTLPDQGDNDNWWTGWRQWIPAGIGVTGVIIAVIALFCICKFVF
Experiment: cell-based or functional assay
quantity-measured: IC50, microneutralization of GP-pseudotyped lentiviral vector on HEK293 cells

binder	observed-result
antibody 231L (antibody, V domains shown) VH: EVQLVESGGGLVQPGGSLRLSCAASAFTFDDYAMHWVRQAPGKGLEWVSGITWSGLSTYYADSVKGRFTISRDNAKNSLYLQMNSLRVEDTALYYCAKSGNNSPFSGLDSWGQGAVVTVSS VL: QSVLTQPPSVSGAPGQRVTVSCTGSSSNIGAGSYVQWYQQLPGTAPKLLIYENNKRPSGVSDRFSGSKSGTSASLTITGLQSEDEADYYCQSYDSSLNAYIFGAGTRLTVL	> 10 µg/mL
antibody 191L (antibody, V domains shown) VH: EVQLVESGGGLVQPGGSLRLSCAASGFTFSSYGIHWVRQAPGKGLEWVAIISYDGNKKFHADSVKDRFTISRDNSKNMLYLQMNNLKLEDTAVYYCARAYDSGYFAGSVFYYWGQGVLVTVSS VL: EVVFTQPHSVSGSPGQTVTISCTRSSGSIDSEYVQWYQQRPGNAPTTVIYKDNQRPSGVPDRFSGSIDSSSNSASLAISGLKSEDEADYYCQSADGNYHPVFGEGTRLTVL	> 10 µg/mL
antibody 310L (antibody, V domains shown) VH: EMQLVESGGGLVQPGGSLRLSCAASGFTFDAYAMHWVRQRPGKGLEWISGIIWSGRTTYYADSVKGRFTFSRDNSKNSLYLEMNSLKPEDTALYYCAKDSWNYGVYNSLDVWGRGILVTVSS VL: QSVLTQPPSVSGAPGQRVTISCTGSSSNVGPHYVSWYQHLPGTTPKLLIFQDNKRPSGVSDRFSGSKSASSASLTITGLQTEDEADYYCLSYDSSLNVYIFGSGTRLTVL	> 10 µg/mL
antibody 206L (antibody, V domains shown) VH: EVQLVESGGGVVQPGGSLRLSCAASGFTFDDYAMHWVRQAPGKGLEWVSGISWSGGNTYYADSVKGRFTVSRENAKNSLYLQMNRLRAEDTAFYNCARTSQGGAVVFSAPNYWGQGVLVTVSS VL: QSVLTQAPSVSGAPGQRVTISCTGSSSNIGGYYVQWYQQLPGRAPKLLIYENNKRPSGVSDRFSGSRSASSASLTITGLQSEDEADYYCQSYDSRLNGYIFGGGTRLTVL	> 10 µg/mL
antibody 232L (antibody, V domains shown) VH: KSQLVESGGGLVQPGGSLRLSCAASGFTFDAYAMHWVRQAPGEGLEWVTAISWSGSSTYYADSVKGRFTFSRDNAKNSLYLEMNSLRADDTAFYYCVKGGVYNWFDVWGPGVLVTVSS VL: QSVLTQPPSVSGAPGQRVTISCTGSRSNIGGYYVSWYQQFPGTTPKLLIYQDNKRPSGVSDRFSGSKSGTSASLTITGLQTEDEADYYCLSYDSSLNGWVFGGGTRLTVL	> 10 µg/mL
antibody mAb114 (antibody, V domains shown) VH: EVQLVESGGGLIQPGGSLRLSCAASGFALRMYDMHWVRQTIDKRLEWVSAVGPSGDTYYADSVKGRFAVSRENAKNSLSLQMNSLTAGDTAIYYCVRSDRGVAGLFDSWGQGILVTVSS VL: DIQMTQSPSSLSASVGDRITITCRASQAFDNYVAWYQQRPGKVPKLLISAASALHAGVPSRFSGSGSGTHFTLTISSLQPEDVATYYCQNYNSAPLTFGGGTKVEIK	0.18 µg/mL

These entries and their values trace back to patent US20260209316A1.
